Parameter 'readout' = pIC50; parameter 'system' = HDAC3 (Homo sapiens (Human)).
Sequence (O15379 whole entry, species assumed): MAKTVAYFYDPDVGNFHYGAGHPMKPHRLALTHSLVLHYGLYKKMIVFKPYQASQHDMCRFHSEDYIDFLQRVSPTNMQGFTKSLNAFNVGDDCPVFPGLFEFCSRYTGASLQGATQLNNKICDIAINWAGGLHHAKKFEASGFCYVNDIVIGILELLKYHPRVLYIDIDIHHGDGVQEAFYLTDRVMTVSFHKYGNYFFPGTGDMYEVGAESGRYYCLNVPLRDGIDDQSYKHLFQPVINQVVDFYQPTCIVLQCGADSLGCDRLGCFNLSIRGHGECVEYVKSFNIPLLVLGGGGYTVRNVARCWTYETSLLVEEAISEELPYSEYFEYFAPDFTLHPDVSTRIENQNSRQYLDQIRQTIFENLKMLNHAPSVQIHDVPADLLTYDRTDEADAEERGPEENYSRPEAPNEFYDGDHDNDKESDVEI
Sequence (Q9Y618 395-489 partner, species assumed): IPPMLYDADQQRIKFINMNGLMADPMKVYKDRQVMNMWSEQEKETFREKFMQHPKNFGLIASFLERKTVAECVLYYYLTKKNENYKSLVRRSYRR
The value called pIC50 is obtained by taking minus log10 of the concentration in mol/L.

As a guide, the following entries are already answered.
- compoundString: "CCCNNC(=O)c1ccc(NC(=O)CCCCCCNC(=O)/C=C/c2cccnc2)cc1"
  pIC50: 7.91
- compoundString: "CCCNNC(=O)c1ccc(CNC(=O)c2cc3cnccc3[nH]2)cc1"
  pIC50: 9.15
- compoundString: "CCCNNC(=O)c1ccc(NC(=O)CCCCCCCNC(=O)/C=C/c2cccnc2)cc1"
  pIC50: 7.01
- compoundString: "CCCNNC(=O)c1ccc(CNC(=O)/C=C/c2cccnc2)cc1"
  pIC50: 8.51
- compoundString: "CCCNNC(=O)c1ccc(CNC(=O)c2cc3cnccc3s2)cc1"
  pIC50: 8.92
- compoundString: "CCCNNC(=O)c1ccc(CNC(=O)c2cc3ccccc3[nH]2)cc1"
  pIC50: 9.42
- compoundString: "CCCNNC(=O)c1ccc(CNC(=O)/C=C/c2ccncc2)cc1"
  pIC50: 8.56
- compoundString: "CCCNNC(=O)c1ccc(CNC(=O)c2cc3ccccc3o2)cc1"
  pIC50: 9.36
- compoundString: "CCCNNC(=O)c1ccc(CNC(=O)c2cc3ccncc3[nH]2)cc1"
  pIC50: 8.62
- compoundString: "CCCNNC(=O)c1ccc(CNC(=O)c2cc3cnccc3o2)cc1"
  pIC50: 9.28

Short answer please: pIC50, HDAC3 (Homo sapiens (Human)), entry CCCNNC(=O)c1ccc(CNC(=O)/C=C/c2ccccn2)cc1
8.74

Give HDAC3 (Homo sapiens (Human)) pIC50 for CCCNNC(=O)CCCCCCCNC(=O)/C=C/c1cccnc1
7.12
